# Experiment Summary: self-splicing fitness, log relative to wild type (ln ratio); higher = more splicing; Tetrahymena group I intron in knt gene, E. coli kanamycin selection, DiMSum; sequences stand for … in CUCUCU…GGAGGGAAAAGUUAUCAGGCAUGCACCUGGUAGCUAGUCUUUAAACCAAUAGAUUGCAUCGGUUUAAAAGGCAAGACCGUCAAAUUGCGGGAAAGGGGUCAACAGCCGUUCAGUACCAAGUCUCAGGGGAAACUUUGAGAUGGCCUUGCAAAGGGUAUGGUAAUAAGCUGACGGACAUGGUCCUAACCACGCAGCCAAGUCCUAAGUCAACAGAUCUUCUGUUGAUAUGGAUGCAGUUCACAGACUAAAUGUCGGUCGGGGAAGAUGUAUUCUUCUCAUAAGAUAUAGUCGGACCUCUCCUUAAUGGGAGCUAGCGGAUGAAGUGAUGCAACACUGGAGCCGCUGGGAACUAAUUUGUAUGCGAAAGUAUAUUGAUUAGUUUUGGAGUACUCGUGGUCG;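 note: selection with 25 µg/mL kanamycin versus none on LB agar overnight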
# Measurement Parameters: 30 °C
Quantity: self-splicing fitness (ln)

macromolecule_sequence=UCCGAGCAAUAUUACGCUCA value_measured=-3.08
macromolecule_sequence=AUCCAGCAAUAUUACGUAGG value_measured=-2.91
macromolecule_sequence=ACACAGCAAUAUUACGAUAG value_measured=-2.96
macromolecule_sequence=UCGGAGCAAUAUUACGGCUU value_measured=-3.05
macromolecule_sequence=UCUAAGCAAUAUUACGAGUU value_measured=-2.94
macromolecule_sequence=ACGAAGCAAUAUUACGUUCC value_measured=-2.97
macromolecule_sequence=GGGAAGCAAUAUUACGUAUG value_measured=-2.95

----------
# Experiment Summary: self-splicing fitness, log relative to wild type (ln ratio); higher = more splicing; Tetrahymena group I intron in knt gene, E. coli kanamycin selection, DiMSum; sequences stand for … in CUCUCU…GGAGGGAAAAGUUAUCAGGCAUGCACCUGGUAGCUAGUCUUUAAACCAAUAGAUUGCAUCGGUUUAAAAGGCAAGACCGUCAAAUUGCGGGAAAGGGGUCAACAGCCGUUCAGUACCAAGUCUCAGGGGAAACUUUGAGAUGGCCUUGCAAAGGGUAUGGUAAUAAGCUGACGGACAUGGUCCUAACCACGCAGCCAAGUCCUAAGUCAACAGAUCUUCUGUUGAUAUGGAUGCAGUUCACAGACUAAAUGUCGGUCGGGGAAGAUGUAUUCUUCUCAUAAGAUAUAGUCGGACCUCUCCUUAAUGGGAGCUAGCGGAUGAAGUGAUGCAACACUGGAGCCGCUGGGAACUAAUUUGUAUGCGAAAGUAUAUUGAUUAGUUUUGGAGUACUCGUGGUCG
# Measurement Parameters: 30 °C
Each item that follows carries a reported self-splicing fitness (ln).
Quantity: self-splicing fitness (ln)

macromolecule_sequence=CAAGAGCAAUAUUACGAUCC value_measured=-2.49
macromolecule_sequence=ACCAAGCAAUAUUACGAUUU value_measured=-1.51
macromolecule_sequence=GCUUAGCAAUAUUACGUGAU value_measured=-0.4
macromolecule_sequence=UGAUAGCAAUAUUACGCGGA value_measured=-2.4
macromolecule_sequence=UACUAGCAAUAUUACGUCAC value_measured=-3.47
macromolecule_sequence=CGGAAGCAAUAUUACGUGGC value_measured=-3.67

----------
# Experiment Summary: self-splicing fitness, log relative to wild type (ln ratio); higher = more splicing; Tetrahymena group I intron in knt gene, E. coli kanamycin selection, DiMSum; sequences stand for … in CUCUCU…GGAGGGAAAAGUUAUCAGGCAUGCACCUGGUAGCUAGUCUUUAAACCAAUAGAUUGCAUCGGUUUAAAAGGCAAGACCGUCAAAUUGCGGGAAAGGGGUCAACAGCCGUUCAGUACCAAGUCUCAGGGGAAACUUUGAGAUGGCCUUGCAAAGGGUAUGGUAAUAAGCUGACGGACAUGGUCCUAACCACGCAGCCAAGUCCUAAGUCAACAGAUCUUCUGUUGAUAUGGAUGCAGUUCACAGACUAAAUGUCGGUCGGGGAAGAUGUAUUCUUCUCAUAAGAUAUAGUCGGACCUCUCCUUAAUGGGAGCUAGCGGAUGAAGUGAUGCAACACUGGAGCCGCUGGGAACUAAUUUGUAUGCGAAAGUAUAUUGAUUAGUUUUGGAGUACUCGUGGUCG
# Measurement Parameters: 37 °C
Measured self-splicing fitness (ln), listed per entry.
Quantity: self-splicing fitness (ln)

macromolecule_sequence=UAUUAGCAAUAUUACGUCGA value_measured=-0.984
macromolecule_sequence=AUUCAGCAAUAUUACGCAUG value_measured=-0.553
macromolecule_sequence=ACUGAGCAAUAUUACGGAAC value_measured=-1.92
macromolecule_sequence=CCUUAGCAAUAUUACGAUUU value_measured=-2.44
macromolecule_sequence=CUGAAGCAAUAUUACGGAUG value_measured=-1.14
macromolecule_sequence=CUCAAGCAAUAUUACGAACG value_measured=-0.932
macromolecule_sequence=UGGAAGCAAUAUUACGGCGA value_measured=-0.28
macromolecule_sequence=GUUUAGCAAUAUUACGCGAU value_measured=-2.42
macromolecule_sequence=GGAUAGCAAUAUUACGAUUC value_measured=-0.731
macromolecule_sequence=UGCCAGCAAUAUUACGCAGA value_measured=-1.66
macromolecule_sequence=AGGCAGCAAUAUUACGAGCU value_measured=-0.299
macromolecule_sequence=CCAUAGCAAUAUUACGCUAC value_measured=-3.23
macromolecule_sequence=GAAAAGCAAUAUUACGGAGU value_measured=-2.11
macromolecule_sequence=UCUUAGCAAUAUUACGUAAU value_measured=-2.58
macromolecule_sequence=AUCGAGCAAUAUUACGUUCG value_measured=-2.52
macromolecule_sequence=UUCGAGCAAUAUUACGUUAA value_measured=-1.82
macromolecule_sequence=ACCGAGCAAUAUUACGGGUG value_measured=-1.08
